biological target: pooled human IgG
Property: Enzyme Activity Endpoint Assay (purified): Fab'2 (ng/µL)
Give your result in ng/µL as a bare value.

Consider the protein PRT-143 (protein) MANQEIRYSEVTPYHITSVWTKGVTPPANFTQGEDVFHAPYVANQGWYDITKTFNGKDDLLCGAATAGNMLHWWFDQNKDQIKRYLEEHPEKQKINFNGEQMFDVKEAIDTKNHQLDSKLFEYFKEKAFPYLSTKHLGVFPDHVIDMFINGYRLSLTNHGPTPVKEGSKDPRGGIFDAVFTRGDQSKLLTSRHDFKEKTLNEISQLIKQELTEGKALGLSHTYANVRINHVINLWGADFDAEGNLEAIYVTDSDSNASIGMKKYFVGVNSAGKVAISAKEIKEDNIGAQVLGLFTLSTGQDSWNQTN and give its recorded Enzyme Activity Endpoint Assay (purified): Fab'2.
576
